Test system: MCF7 breast
protocol_text: NCI-60 one-dose screen, 48 h (100 = growth as untreated, 0 = no growth, -100 = all killed)
experimental_conditions: 10 µM unless noted
Procedure: Growth inhibition of the MCF7 human tumor cell line is measured as a screen for anti-cancer activity. Cells are grown in 96 well plates and exposed to the test compound for 48 hours. Compounds are tested at a single concentration, which is 10^-5 M for most compounds. The reported endpoint is percent growth (GI% or GIPRCNT), where numbers from 0 - 100% represent growth inhibition, and numbers from -100% - 0 represent cell death. For example, a value of 40 represents 60% growth inhibition. […]
Compounds without any hit were thinned out: in the full panel of roughly 83,000, 20% have a hit.
The threshold is 30%. Values of growth beneath it are tagged Y; values meeting or exceeding it are tagged N.

These solved cases illustrate the format of a correct answer.
CCC(CC)(N(CC(=O)O)CC(=O)O)C(CC)(CC)N(CC(=O)O)CC(=O)O ... N
C#CC#CC#CC#CC#CC#CC#CC#CC[C@H]1OC[C@@H](COC(=O)O[C@@H](C(=O)O[C@H]2C[C@@]3(O)[C@@H](OC(=O)c4ccccc4)[C@@H]4[C@]5(OC(C)=O)CO[C@@H]5C[C@H](O)[C@@]4(C)C(=O)[C@H](OC(C)=O)C(=C2C)C3(C)C)[C@@H](NC(=O)c2ccccc2)c2ccccc2)O1 ... N
CCOC(=O)c1cn2ncnc(Oc3ccc(NC(=O)NC4CC4)c(F)c3)c2c1C ... N

Please state whether growth is below 30% for `CC(C)(C)C(=O)/C=C/c1ccc([N+](=O)[O-])cc1`
Y

Please state whether growth is below 30% for `O=C(/C=C/c1ccc(Br)cc1)c1ccc(-n2cc(CN3CCN(c4cc5c(cc4F)c(=O)c(C(=O)O)cn5C4CC4)CC3)nn2)cc1`
N

Please state whether growth is below 30% for `O=C(c1ccc(F)c(Cl)c1)N1c2ccccc2Sc2ccccc21`
N

Please state whether growth is below 30% for CCN1C(=O)N(CC)C2C1NN=c1s/c(=C3\C(=O)N(CCc4ccccc4)c4ccccc43)c(=O)n12 (configuration not stated)
Y
